# Test system: Acinetobacter baumannii NCTC 13420
# experimentSummary: MIC, broth microdilution (CLSI)
# Format: cell-based
# assayConditions: Acinetobacter baumannii, NCTC13420; A. baumannii NCTC 13420; 16-20 h; mode of three experiments; read-out: MIC
Here the recorded MIC is given for each entry.

Reference set, count: 5
N#Cc1ccc2ccc(=O)n(CCN3CC4CN(c5ccc6c(n5)NC(=O)CO6)C(=O)O[C@@H]4C3)c2c1 (stereo in doubt) [Compound 12] :: < 1 µg/mL
N#Cc1ccc2ccc(=O)n(CCN3CC4CN(c5ccc6c(n5)NC(=O)CO6)C(=O)O[C@H]4C3)c2c1 (stereo in doubt) [Compound 17] :: < 1 µg/mL
NCCCOc1ccc2ccc(=O)n(CCN3C[C@@H]4CN(c5ccc6c(n5)NC(=O)CO6)C(=O)O[C@H]4C3)c2n1 (relative stereo) [Compound 8] :: > 100 µg/mL
COc1ncc2ccc(=O)n(CCCN3CC4CN(c5ccc6c(n5)NC(=O)CO6)C(=O)OC4C3)c2n1 (stereo not drawn) [Compound 11] :: 10 to 100 µg/mL
COc1ncc2ccc(=O)n(CCN3C[C@H]4CN(c5ccc6c(n5)NC(=O)CO6)C(=O)O[C@@H]4C3)c2n1 (relative stereo) [Compound 13] :: 10 to 100 µg/mL

Find the measured MIC of NCCCOc1ccc2ccc(=O)n(CCCN3CC4CN(c5ccc6c(n5)NC(=O)CO6)C(=O)OC4C3)c2n1 (stereo not drawn) [Compound 6] and report it.
> 100 µg/mL

---

# System: Pseudomonas aeruginosa ATCC 27853
# experimentSummary: MIC, broth microdilution (CLSI)
# Format: cell-based
# assayConditions: Pseudomonas aeruginosa, ATCC27853; P. aeruginosa ATCC 27853; 16-20 h; mode of three experiments; read-out: MIC
Here the recorded MIC is given for each entry.

Reference set, count: 3
COc1ncc2ccc(=O)n(CCN3C[C@H]4CN(c5ccc6c(n5)NC(=O)CO6)C(=O)O[C@@H]4C3)c2n1 (relative stereo) :: 10 to 100 µg/mL
COc1ccc2ccc(=O)n(CCN3CC4CN(c5ccc6c(n5)NC(=O)CO6)C(=O)OC4C3)c2n1 (centres unmarked) :: 10 to 100 µg/mL
O=C1COc2ccc(N3C[C@@H]4CN(CCCn5c(=O)ccc6ccccc65)C[C@@H]4OC3=O)nc2N1 (relative stereo) :: 1 to 10 µg/mL

Find the measured MIC of N#Cc1ccc2ccc(=O)n(CCCN3C[C@H]4CN(c5ccc6c(n5)NC(=O)CO6)C(=O)O[C@@H]4C3)c2c1 (relative stereo) and report it.
1 to 10 µg/mL

Find the measured MIC of O=C1COc2ccc(N3C[C@H]4CN(CCn5c(=O)ccc6ccc(OCCO)nc65)C[C@@H]4OC3=O)nc2N1 (relative stereo) and report it.
10 to 100 µg/mL

Find the measured MIC of N#Cc1cccc(-c2cccc(CN3C[C@@H]4CN(c5ccc6c(n5)NC(=O)CO6)C(=O)O[C@H]4C3)c2O)n1 (relative stereo) and report it.
> 100 µg/mL

Find the measured MIC of NCCCOc1ccc2ccc(=O)n(CCN3C[C@@H]4CN(c5ccc6c(n5)NC(=O)CO6)C(=O)O[C@H]4C3)c2n1 (relative stereo) and report it.
10 to 100 µg/mL

Find the measured MIC of N#Cc1ccc2ccc(=O)n(CCN3CC4CN(c5ccc6c(n5)NC(=O)CO6)C(=O)O[C@@H]4C3)c2c1 (stereo in doubt) and report it.
1 to 10 µg/mL
